Data origin: PubChem BioAssay AID1963420

# Test system: 494315-158-R-J1-PDC complex spheroid growth, percent test/control;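 note: compound exposure lasted seven days after spheroids formed for three days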
# TEST PROTOCOL: Anticancer human tumor 494315-158-R-J1-PDC patient-derived soft tissue sarcoma cell line growth inhibition [Asc]
# RUN PARAMETERS: second compound 3 µM; first compound 0.00316 µM; hits give low values
READOUT LABEL: viability, T/C (%)
Give the quantity in %, number only.

# annotated cases, reported viability, T/C shown
COMPOUND	viability, T/C, %
O=C(c1ccc(F)c(F)c1Nc1ccc(I)cc1F)N1CC(O)([C@@H]2CCCCN2)C1 + CCN1C(C(=O)NC23CCC(C(=O)O)(CC2)CC3)C(c2cccc(Cl)c2F)C2(C(=O)Nc3cc(Cl)ccc32)C12CCCCC2	98.2
CNC(C)C(=O)NC1CN(S(=O)(=O)c2cccc(S(=O)(=O)N3CCC4CCC(C(=O)NC(c5ccccc5)c5ccccc5)N4C(=O)C(NC(=O)C(C)NC)C3)c2)CCC2CCC(C(=O)NC(c3ccccc3)c3ccccc3)N2C1=O (stereo unspecified) + CCN1C(C(=O)NC23CCC(C(=O)O)(CC2)CC3)C(c2cccc(Cl)c2F)C2(C(=O)Nc3cc(Cl)ccc32)C12CCCCC2	67.6
COc1c(OCCCN2CCOCC2)ccc2c3n(c(=NC(=O)c4cnc(N)nc4)nc12)CCN3 + CCN1C(C(=O)NC23CCC(C(=O)O)(CC2)CC3)C(c2cccc(Cl)c2F)C2(C(=O)Nc3cc(Cl)ccc32)C12CCCCC2	112
NC1CCC(NC2CC2c2ccccc2)CC1 (stereo unspecified) + CCN1C(C(=O)NC23CCC(C(=O)O)(CC2)CC3)C(c2cccc(Cl)c2F)C2(C(=O)Nc3cc(Cl)ccc32)C12CCCCC2	93.7
Cn1ncnc1[C@H]1c2n[nH]c(=O)c3cc(F)cc(c23)N[C@@H]1c1ccc(F)cc1 + CCN1C(C(=O)NC23CCC(C(=O)O)(CC2)CC3)C(c2cccc(Cl)c2F)C2(C(=O)Nc3cc(Cl)ccc32)C12CCCCC2	67.9

(Q) Recorded viability, T/C of CCN1CCN(Cc2ccc(Nc3ncc(F)c(-c4cc(F)c5nc(C)n(C(C)C)c5c4)n3)nc2)CC1 + CCN1C(C(=O)NC23CCC(C(=O)O)(CC2)CC3)C(c2cccc(Cl)c2F)C2(C(=O)Nc3cc(Cl)ccc32)C12CCCCC2 , please.
(A) 110
